Record form. Attribute: EC50. Fill in for each entry.
system: Hepatitis C virus; assay: Antiviral activity against Hepatitis C virus subtype 1b expressing NS3 A156G mutant infected in HuH7 cells after 48 hrs by luciferase reporter assay; type: functional, organism-based, Hepacivirus hominis; settings: genotype 1b, Huh-7, 48 h
Answers are plain numbers, in µM.

Before answering, review these 3 worked examples.
molecule=COc1ccc2c(O[C@@H]3C[C@H]4C(=O)N[C@]5(C(=O)O)C[C@H]5/C=C\CCCCC[C@H](NC(=O)OC5CCCC5)C(=O)N4C3)cc(-c3csc(NC(C)C)n3)nc2c1 targetsystem="Hepatitis C virus" numericvalue=0.022
molecule="CC(C)(C)NC(=O)N[C@H](C(=O)N1C[C@H]2[C@@H]([C@H]1C(=O)NC(CC1CCC1)C(=O)C(N)=O)C2(C)C)C(C)(C)C (some centres undefined)" targetsystem="Hepatitis C virus" numericvalue=0.065
molecule=COc1ccc2c(O[C@@H]3C[C@H]4C(=O)N[C@]5(C(=O)NS(=O)(=O)C6CC6)C[C@H]5/C=C\CCCCN(C)C(=O)[C@@H]4C3)cc(-c3nc(C(C)C)cs3)nc2c1C targetsystem="Hepatitis C virus" numericvalue=0.206

Now look at this entry.
Enquiry: Query (molecule): `CCC[C@H](NC(=O)[C@@H]1[C@H]2CCC[C@H]2CN1C(=O)[C@@H](NC(=O)[C@@H](NC(=O)c1cnccn1)C1CCCCC1)C(C)(C)C)C(=O)C(=O)NC1CC1` ; field requested: EC50
Return: 0.058

====

tested on: Hepatitis C virus; assay: Antiviral activity against Hepatitis C virus subtype 1b expressing NS3 D168H mutant infected in HuH7 cells after 48 hrs by luciferase reporter assay; format: functional, organism-based, Hepacivirus hominis; settings: genotype 1b, Huh-7, 48 h
quantityKind: EC50
Returns: string containing the number followed by the unit.

Example cases with answers are listed next.
molecule="CCC[C@H](NC(=O)[C@@H]1[C@H]2CCC[C@H]2CN1C(=O)[C@@H](NC(=O)[C@@H](NC(=O)c1cnccn1)C1CCCCC1)C(C)(C)C)C(=O)C(=O)NC1CC1 [TELAPREVIR]" quantitykind=EC50 result="102 nM"
molecule="COc1ccc2c(O[C@@H]3C[C@H]4C(=O)N[C@]5(C(=O)NS(=O)(=O)C6CC6)C[C@H]5/C=C\\CCCCN(C)C(=O)[C@@H]4C3)cc(-c3nc(C(C)C)cs3)nc2c1C [SIMEPREVIR]" quantitykind=EC50 result="5660 nM"
molecule="CC(C)(C)NC(=O)N[C@H](C(=O)N1C[C@H]2[C@@H]([C@H]1C(=O)NC(CC1CCC1)C(=O)C(N)=O)C2(C)C)C(C)(C)C (some centres undefined) [BOCEPREVIR]" quantitykind=EC50 result="73 nM"

Enquiry: Find EC50 (Hepatitis C virus) for the entry COc1ccc2c(O[C@@H]3C[C@H]4C(=O)N[C@]5(C(=O)O)C[C@H]5/C=C\CCCCC[C@H](NC(=O)OC5CCCC5)C(=O)N4C3)cc(-c3csc(NC(C)C)n3)nc2c1 [CILUPREVIR]
Return: 215 nM

====

experiment: Inhibition of Hepatitis C virus subtype 1a NS3/4A protease
quantityKind: pKi
Give bare numbers, as −log10 of the molar value.

Enquiry: So what's the measured pKi for this one? `COc1ccc2c(O[C@@H]3C[C@H]4C(=O)N[C@]5(C(=O)NS(=O)(=O)C6CC6)C[C@H]5/C=C\CCCCN(C)C(=O)[C@@H]4C3)cc(-c3nc(C(C)C)cs3)nc2c1C`
Return: 9.40
